tested on: RXF-631 renal; assay: NCI tumour cell line growth inhibition, 48 h
recordedMetric: TGI

Known TGI results, listed for orientation:
chemicalStructure	studySystem	valueObserved
Cc1ccc(NC(=O)/C(=N/NC(=O)C[N+](C)(C)C)c2nc3ccccc3[nH]c2=O)cc1	RXF-631 renal	> 100 µM
O=C1CCNC(=O)NC1	RXF-631 renal	> 100 µM

# context switch: different compound, same TGI
Please give the measured TGI for this compound: Cc1ccc(/C=C/C(=O)c2ccc([N+](=O)[O-])cc2)cc1 > 100 µM

###

tested on: 786-0 renal; experiment: NCI tumour cell line growth inhibition, 48 h
recordedMetric: TGI

chemicalStructure	TGI
COc1ccc(-c2nc(-c3cnccn3)n(Cc3ccccc3)n2)cc1	> 100 µM
COc1cc(O)cc(O)c1C(=O)CC(Cl)(Cl)Cl	> 100 µM

# context switch: different compound, same TGI
Please give the measured TGI for this compound: CN(/N=C/c1ccc(Cl)cc1)C1=NCCCCN1 > 100 µM

Source listed as PubChem BioAssay (NCI).
